These measurements were taken from patent US9670157B2.

assay: Pharmacokinetics following a single oral dose in rats; type: in vivo; details: rat, nominal 10 mg/kg, male Sprague-Dawley rats, plasma
recorded-endpoint: Tmax (h)
Supply the numeric figure in h, leaving out any unit text.

# annotated cases, reported Tmax shown
[
  {
    "structure-smiles-string": "Cc1cc(C(=O)NCc2ccc(CN)c(F)c2)c(C)n1Cc1csc(-c2ccccc2)n1",
    "Tmax (h)": 2.58
  },
  {
    "structure-smiles-string": "Cc1cnn(Cc2ccc(Cn3c(C)cc(C(=O)NCc4c(C)cc(CN)cc4C)c3C)cc2)c1",
    "Tmax (h)": 5
  },
  {
    "structure-smiles-string": "Cc1cc(C(=O)NCc2ccc(CN)nc2)c(C)n1Cc1csc(-c2ccccc2)n1",
    "Tmax (h)": 4
  },
  {
    "structure-smiles-string": "Cc1cc(CN)ccc1CNC(=O)c1cc(C)n(Cc2csc(-c3ccccc3)n2)c1C",
    "Tmax (h)": 5
  },
  {
    "structure-smiles-string": "Cc1cc(C(=O)NCc2ccc(CN)cc2)c(C)n1Cc1csc(-c2ccsc2)n1",
    "Tmax (h)": 3.5
  }
]

Consider the record given below.
Give Tmax for the following compound: Cc1cc(C(=O)NCc2ccc(CN)cc2)c(C)n1Cc1csc(-c2ccccc2)n1
4.67
